target: Rat IR (rat, UniProt P15127 27-1383); experiment: cell-based or functional assay
Sequence (P15127 27-1383): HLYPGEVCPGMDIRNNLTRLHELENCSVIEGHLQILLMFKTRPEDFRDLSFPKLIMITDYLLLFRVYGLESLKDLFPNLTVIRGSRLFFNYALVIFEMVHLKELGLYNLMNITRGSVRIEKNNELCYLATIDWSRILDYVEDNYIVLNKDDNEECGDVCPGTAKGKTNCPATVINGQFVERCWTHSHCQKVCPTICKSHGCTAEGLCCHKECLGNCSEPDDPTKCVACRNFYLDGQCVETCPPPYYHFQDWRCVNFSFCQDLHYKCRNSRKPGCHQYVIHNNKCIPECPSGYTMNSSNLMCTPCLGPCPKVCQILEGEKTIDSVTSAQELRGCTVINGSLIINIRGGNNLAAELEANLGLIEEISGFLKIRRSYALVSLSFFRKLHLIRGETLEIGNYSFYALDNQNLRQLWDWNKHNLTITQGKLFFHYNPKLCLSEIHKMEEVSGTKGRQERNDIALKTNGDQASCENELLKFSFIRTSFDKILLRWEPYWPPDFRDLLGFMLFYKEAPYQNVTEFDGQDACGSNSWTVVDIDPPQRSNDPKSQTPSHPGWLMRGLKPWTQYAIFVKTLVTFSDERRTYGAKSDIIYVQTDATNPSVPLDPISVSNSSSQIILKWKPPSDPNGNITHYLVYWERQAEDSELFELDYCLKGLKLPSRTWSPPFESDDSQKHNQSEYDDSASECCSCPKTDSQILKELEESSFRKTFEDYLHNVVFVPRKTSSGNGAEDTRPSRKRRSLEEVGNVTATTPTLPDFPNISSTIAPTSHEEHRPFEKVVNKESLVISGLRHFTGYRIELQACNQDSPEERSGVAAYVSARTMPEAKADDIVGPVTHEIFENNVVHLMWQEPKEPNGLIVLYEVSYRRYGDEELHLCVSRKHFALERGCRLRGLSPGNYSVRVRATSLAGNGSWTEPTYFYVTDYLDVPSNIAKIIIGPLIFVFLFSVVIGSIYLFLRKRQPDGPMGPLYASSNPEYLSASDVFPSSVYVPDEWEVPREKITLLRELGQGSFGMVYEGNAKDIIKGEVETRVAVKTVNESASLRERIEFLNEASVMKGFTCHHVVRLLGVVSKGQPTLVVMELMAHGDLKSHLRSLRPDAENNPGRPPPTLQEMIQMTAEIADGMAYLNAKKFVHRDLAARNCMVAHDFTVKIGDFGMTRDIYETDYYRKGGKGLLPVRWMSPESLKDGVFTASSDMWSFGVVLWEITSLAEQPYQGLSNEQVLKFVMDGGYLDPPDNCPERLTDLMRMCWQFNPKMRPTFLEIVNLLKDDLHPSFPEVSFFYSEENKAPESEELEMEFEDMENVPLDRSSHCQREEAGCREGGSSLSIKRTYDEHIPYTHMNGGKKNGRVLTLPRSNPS
observable: Rat IR phosphorylation [EC50 nM] mean (nM)
Numbers only, in nM.

Tell me the measured Rat IR phosphorylation [EC50 nM] mean of scl-Fc fusion protein INS018 (Fc fusion) FVNQHLCGSHLVEALELVCGERGFHYTPKTGSYPGGVGIVEQCCTSICSLSQLEDYCGGEAEDLQVGQVELGGGPGAGSLQPEGSLQGGPSVFLFPPKPKDTLMISRTPEVTCVVVDVSHEDPEVKFNWYVDGVEVHNAKTKPREEQYNSTYRVVSVLTVLHQDWLNGKEYKCKVSNKALPAPIEKTISKAKGQPREPQVYTLPPSRDELTKNQVSLTCLVKGFYPSDIAVEWESNGQPENNYKTTPPVLDSDGSFFLYSKLTVDKSRWQQGNVFSCSVMHEALHNHYTQKSLSLSPGGGGGSAESKYGPPCPPCPA , please. 233
